- Subject of test: von Willebrand factor full length (Homo sapiens, UniProt P04275 SEQ:764-2813)
- Assay text: filter; 20 nM protein
- Condition notes: tags: Calbiochem 681300
Readout label: binding signal

[
  {
    "Binder": "AMX238.D8 (ssDNA) DNA: CTACCTACGATCTGACTAGCTCCAGTGTTTTATCCAACAACCGTGCGGTGCCTCCGTGAGCTTACTCTCATGTAGTTCC",
    "Reported": "2.02 ratio to no protein"
  },
  {
    "Binder": "AMX238.A6 (ssDNA) DNA: CTACCTACGATCTGACTAGCGGAATGAGAATGCAGATGGATTGCTCAGGTCTGCTGGCTGCTTACTCTCATGTAGTTCC",
    "Reported": "0.92 ratio to no protein"
  },
  {
    "Binder": "AMX237.H10 (ssDNA) DNA: CTACCTACGATCTGACTAGCTTGGTAGCGACTCAGAGGAGCTGCGGTTTGGTCGACGTCAGCTTACTCTCATGTAGTTCC",
    "Reported": "1.71 ratio to no protein"
  },
  {
    "Binder": "AMX237.A11 (ssDNA) DNA: CTACCTACGATCTGACTAGCTCCAGTGTTTTATCCAATAACCGTGCGGTGCCTCCGTGAGCTTACTCTCATGTAGTTCC",
    "Reported": "2.66 ratio to no protein"
  },
  {
    "Binder": "AMX236.B3 (ssDNA) DNA: CTACCTACGATCTGACTAGCCTTACCTATTCCCTTCTGCGGAATACGTCGAGTACTATGCTTACTCTCATGTAGTTCC",
    "Reported": "1.54 ratio to no protein"
  }
]
